Listing of recorded pIC50 by entry.
- Target under test: human VR1 (Homo sapiens)
- Sequence (Q8NER1 whole entry): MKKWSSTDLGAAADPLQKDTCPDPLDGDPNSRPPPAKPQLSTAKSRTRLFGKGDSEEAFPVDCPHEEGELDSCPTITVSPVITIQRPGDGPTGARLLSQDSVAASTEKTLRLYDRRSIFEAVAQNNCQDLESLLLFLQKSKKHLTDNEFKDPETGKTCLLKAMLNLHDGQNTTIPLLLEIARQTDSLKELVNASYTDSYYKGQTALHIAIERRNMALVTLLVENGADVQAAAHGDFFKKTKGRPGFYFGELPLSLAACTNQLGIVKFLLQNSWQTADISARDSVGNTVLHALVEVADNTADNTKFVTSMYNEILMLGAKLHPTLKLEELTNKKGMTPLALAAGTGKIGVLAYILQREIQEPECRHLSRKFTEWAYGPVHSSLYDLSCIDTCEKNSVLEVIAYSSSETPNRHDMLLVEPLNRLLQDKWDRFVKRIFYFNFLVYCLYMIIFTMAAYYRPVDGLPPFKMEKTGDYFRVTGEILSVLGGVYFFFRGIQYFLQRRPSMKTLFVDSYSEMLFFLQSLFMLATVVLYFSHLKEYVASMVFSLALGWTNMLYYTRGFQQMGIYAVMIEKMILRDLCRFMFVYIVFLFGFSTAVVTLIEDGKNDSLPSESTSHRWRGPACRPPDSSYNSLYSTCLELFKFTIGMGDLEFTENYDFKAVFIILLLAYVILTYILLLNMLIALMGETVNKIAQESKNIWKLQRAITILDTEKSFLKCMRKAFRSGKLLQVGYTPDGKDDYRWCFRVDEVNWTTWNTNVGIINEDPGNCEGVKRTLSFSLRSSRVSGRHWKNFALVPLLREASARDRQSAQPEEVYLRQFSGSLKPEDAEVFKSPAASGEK
- Method description: Inhibition of Ca2+ entry in cells caused by proton (Test Example [1])
- Measurement context: rat glioma (C6BU1) cells stably expressing human VR1; proton stimulation, pH 5.7; Ca2+ uptake, Fura 2-AM; read-out: VRI Inhibition IC50
pIC50: −log10 of the molar value.
Property name: pIC50

- Cc1ccc(N2c3cccc(C(=O)Nc4ccc(OCC(C)(C)C)nc4)c3OC[C@@H]2CO)nc1: 10.72
- O=C(Nc1ccc(C(F)(F)F)cc1)c1cccc2c1OCCN2c1ncc(CO)cc1Cl: 8.89
- Cc1ccc(N2c3cccc(C(=O)Nc4ccc(OC(C)(C)C)nc4)c3OC[C@@H]2CO)nc1: 9.18
- O=C(Nc1ccc(OCC(F)(F)F)cc1)c1cccc2c1OCCN2c1ncc(CO)cc1Cl: 7.74
- Cc1ccc(N2c3cccc(C(=O)Nc4ccc(OCC(C)C)nc4)c3OC[C@@H]2CO)nc1: 9.85
- O=C(Nc1ccc(OCC(F)(F)F)c(Cl)c1)c1cccc2c1OCCN2c1ncc(CO)cc1Cl: 8.28
- Cc1ccc(N2c3cccc(C(=O)Nc4ccc(OCC(C)C)c(F)c4)c3OC[C@@H]2CO)nc1: 10.52
- Cc1ccc(N2c3cccc(C(=O)Nc4cc(F)c(OC(C)(C)CO)c(F)c4)c3OC[C@@H]2CO)nc1: 9.16
- Cc1ccc(N2c3cccc(C(=O)Nc4ccc(OC(C)(C)C)c(F)c4)c3OC[C@@H]2CO)nc1: 9.92
